Measured pIC50 values are reported for all entries that follow.
Molecular target: Voltage-dependent T-type calcium channel subunit alpha-1H (Homo sapiens, UniProt O95180)
Sequence (O95180 whole entry): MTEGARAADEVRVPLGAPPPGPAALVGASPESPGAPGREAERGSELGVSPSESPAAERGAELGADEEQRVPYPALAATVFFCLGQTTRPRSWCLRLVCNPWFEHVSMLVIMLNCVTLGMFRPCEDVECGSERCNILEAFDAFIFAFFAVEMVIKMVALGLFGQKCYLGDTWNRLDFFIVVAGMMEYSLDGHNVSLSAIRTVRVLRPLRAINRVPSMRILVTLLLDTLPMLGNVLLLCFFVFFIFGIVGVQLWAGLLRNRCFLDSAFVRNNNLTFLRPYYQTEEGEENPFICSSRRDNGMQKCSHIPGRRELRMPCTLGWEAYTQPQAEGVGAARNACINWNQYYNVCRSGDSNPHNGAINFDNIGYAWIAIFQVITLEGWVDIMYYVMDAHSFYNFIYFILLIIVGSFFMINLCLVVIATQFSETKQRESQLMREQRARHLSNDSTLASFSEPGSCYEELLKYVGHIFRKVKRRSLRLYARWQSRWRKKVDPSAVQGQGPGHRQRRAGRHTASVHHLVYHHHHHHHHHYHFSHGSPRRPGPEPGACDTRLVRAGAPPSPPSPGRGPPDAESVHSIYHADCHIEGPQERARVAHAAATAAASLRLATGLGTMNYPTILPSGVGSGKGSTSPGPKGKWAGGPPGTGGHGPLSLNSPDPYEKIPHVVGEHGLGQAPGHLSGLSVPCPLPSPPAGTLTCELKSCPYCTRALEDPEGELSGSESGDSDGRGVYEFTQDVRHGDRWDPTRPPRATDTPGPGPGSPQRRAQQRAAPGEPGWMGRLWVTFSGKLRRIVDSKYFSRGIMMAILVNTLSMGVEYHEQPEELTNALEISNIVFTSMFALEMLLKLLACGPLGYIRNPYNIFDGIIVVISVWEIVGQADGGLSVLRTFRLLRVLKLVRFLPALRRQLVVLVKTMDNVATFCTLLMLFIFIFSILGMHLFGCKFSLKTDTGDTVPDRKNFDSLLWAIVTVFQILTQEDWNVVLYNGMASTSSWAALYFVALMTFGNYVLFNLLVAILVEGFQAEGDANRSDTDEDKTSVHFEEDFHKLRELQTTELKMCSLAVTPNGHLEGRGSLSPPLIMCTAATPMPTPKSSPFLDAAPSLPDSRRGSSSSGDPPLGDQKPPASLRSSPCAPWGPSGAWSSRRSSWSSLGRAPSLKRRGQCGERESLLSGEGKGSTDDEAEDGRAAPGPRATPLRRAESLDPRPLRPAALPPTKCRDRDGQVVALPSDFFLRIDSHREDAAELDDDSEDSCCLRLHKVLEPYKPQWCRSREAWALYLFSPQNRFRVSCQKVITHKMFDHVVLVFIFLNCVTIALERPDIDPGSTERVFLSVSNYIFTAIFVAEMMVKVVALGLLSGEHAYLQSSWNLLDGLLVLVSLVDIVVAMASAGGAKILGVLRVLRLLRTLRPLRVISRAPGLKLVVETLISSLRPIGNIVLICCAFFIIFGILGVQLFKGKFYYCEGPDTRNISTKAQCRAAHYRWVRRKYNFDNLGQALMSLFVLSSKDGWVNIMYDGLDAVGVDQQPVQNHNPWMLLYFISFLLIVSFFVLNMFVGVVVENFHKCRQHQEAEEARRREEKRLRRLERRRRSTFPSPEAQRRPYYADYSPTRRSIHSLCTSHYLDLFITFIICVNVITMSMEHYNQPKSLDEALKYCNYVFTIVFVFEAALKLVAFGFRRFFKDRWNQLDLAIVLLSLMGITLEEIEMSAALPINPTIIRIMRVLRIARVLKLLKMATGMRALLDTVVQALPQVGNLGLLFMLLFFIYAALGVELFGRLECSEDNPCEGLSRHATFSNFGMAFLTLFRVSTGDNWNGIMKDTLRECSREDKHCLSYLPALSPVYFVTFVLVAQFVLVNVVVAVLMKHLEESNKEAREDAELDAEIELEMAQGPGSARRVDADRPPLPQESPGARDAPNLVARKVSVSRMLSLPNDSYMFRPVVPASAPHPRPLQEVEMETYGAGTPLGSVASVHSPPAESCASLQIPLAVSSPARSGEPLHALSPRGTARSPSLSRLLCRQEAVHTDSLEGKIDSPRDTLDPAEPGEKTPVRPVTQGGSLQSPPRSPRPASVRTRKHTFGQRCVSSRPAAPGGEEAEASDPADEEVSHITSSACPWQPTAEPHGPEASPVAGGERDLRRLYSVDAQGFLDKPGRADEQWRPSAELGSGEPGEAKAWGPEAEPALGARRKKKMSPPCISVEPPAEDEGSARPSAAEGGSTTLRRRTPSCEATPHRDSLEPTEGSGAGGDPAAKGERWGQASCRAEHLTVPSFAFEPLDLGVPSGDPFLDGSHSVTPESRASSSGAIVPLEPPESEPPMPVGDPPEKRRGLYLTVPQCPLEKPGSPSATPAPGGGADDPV
Test: Inhibition of human T type calcium channel Cav3.2 expressed in HEK-293T cells assessed as calcium influx by FRIPR assay
pIC50: −log10 of the molar value.
Assay Metric: pIC50

CN(C)CCCOc1ccc(C(=O)Nc2ccccc2Oc2ccccc2)cc1; 4.72
COCCOC(=O)C1=C(C)NC(C)=C(C(=O)OC/C=C/c2ccccc2)C1c1cccc([N+](=O)[O-])c1 (stereo not given); 4.62
O=C(c1ccc(OCCCN2CCCC2)cc1)N1c2ccccc2CCc2ccccc21; 3.96
O=C(c1ccc(OCCCN2CCCC2)cc1)N1c2ccccc2Oc2ccccc21; 4.31
NC(N)=NCCCOc1ccc(C(=O)N2c3ccccc3Oc3ccccc32)cc1; 3.79
Cc1cccc(C)c1Oc1ccccc1NC(=O)c1ccc(OCCCN(C)C)cc1; 4.26
O=C(c1ccc(OCCCN2CCOCC2)cc1)N1c2ccccc2CCc2ccccc21; 4.10
O=C(c1ccc(OCCCN2CCCC2)cc1)N1c2ccccc2C=Cc2ccccc21; 3.95
O=C(c1ccc(OCCCN2CCOCC2)cc1)N1c2ccccc2C=Cc2ccccc21; 3.71
O=C(c1ccc(OCCCN2CCOCC2)cc1)N1c2ccccc2Oc2ccccc21; 3.88

====

Target: Voltage-dependent N-type calcium channel subunit alpha-1B (Homo sapiens)
Sequence (Q00975 whole entry): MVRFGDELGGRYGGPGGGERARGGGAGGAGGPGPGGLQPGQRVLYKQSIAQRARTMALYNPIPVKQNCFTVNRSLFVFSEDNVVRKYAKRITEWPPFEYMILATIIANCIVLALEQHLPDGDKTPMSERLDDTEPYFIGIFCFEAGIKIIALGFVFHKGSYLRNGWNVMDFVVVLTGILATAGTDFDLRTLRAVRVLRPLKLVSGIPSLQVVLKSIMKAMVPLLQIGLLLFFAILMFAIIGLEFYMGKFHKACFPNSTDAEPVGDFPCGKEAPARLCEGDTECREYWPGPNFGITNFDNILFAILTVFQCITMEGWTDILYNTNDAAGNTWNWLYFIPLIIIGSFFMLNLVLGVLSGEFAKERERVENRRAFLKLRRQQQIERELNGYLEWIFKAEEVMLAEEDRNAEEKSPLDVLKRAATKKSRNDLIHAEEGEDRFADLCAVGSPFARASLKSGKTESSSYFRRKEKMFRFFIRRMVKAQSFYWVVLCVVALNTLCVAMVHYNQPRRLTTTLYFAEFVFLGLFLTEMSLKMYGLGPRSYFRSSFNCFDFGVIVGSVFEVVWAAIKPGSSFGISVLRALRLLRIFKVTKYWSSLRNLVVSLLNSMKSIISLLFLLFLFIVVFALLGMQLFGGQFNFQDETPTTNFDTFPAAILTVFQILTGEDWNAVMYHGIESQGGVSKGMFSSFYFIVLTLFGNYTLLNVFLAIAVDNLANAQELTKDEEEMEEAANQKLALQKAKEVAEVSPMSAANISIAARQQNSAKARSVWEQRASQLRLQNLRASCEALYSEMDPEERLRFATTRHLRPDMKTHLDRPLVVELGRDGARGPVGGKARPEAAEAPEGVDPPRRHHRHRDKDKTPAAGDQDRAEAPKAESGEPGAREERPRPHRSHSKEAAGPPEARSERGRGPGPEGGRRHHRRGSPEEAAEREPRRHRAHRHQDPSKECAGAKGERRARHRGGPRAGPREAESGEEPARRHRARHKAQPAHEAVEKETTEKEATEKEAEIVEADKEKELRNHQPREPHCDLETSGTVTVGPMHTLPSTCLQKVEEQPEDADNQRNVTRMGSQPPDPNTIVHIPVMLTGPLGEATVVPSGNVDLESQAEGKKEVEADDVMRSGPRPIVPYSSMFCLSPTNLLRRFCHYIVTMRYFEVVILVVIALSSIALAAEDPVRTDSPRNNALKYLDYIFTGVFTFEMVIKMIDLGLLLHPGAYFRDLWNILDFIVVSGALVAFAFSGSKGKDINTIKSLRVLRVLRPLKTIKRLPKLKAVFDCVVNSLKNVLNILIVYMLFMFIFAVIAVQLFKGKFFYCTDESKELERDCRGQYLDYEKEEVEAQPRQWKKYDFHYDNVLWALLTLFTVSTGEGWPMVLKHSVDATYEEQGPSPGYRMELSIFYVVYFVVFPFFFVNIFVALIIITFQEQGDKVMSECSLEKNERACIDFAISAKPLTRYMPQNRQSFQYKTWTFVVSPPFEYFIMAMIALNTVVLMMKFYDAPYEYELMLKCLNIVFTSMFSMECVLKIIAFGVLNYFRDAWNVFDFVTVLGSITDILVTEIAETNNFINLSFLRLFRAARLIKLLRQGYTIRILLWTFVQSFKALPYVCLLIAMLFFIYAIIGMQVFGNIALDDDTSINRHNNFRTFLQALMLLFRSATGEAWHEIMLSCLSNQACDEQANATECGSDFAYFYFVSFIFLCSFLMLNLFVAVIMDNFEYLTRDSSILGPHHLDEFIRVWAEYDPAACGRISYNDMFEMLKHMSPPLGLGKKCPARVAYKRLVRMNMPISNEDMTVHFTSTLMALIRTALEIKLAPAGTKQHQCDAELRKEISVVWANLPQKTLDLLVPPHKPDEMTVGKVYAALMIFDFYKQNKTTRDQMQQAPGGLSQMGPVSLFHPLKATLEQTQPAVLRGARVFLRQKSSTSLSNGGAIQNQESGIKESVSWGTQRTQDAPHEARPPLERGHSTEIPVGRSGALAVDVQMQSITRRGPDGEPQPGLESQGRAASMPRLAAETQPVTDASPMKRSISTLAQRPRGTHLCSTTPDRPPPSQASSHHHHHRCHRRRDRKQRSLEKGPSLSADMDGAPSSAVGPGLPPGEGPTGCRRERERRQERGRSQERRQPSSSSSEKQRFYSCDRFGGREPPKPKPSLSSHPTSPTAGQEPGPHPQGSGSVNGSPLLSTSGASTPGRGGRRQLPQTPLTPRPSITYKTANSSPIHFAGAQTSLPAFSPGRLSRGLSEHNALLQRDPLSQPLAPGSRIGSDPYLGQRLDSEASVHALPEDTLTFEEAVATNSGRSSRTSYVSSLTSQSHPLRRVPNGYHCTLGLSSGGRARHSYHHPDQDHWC
Assay: Inhibition of human N type calcium channel Cav2.2 endogenously expressed in SH-SY5Y cells assessed as calcium influx by FRIPR assay
Type: cell-based
pIC50: −log10 of the molar value.
Assay Metric: pIC50

Cc1cccc(C)c1Oc1ccccc1NC(=O)c1ccc(OCCCN(C)C)cc1; 4.21
O=C(c1ccc(OCCCN2CCOCC2)cc1)N1c2ccccc2CCc2ccccc21; 4.11
CN(C)CCCOc1ccc(C(=O)Nc2ccccc2Oc2ccccc2)cc1; 4.31
COCCOC(=O)C1=C(C)NC(C)=C(C(=O)OC/C=C/c2ccccc2)C1c1cccc([N+](=O)[O-])c1 (stereo not drawn); 4.59
O=C(c1ccc(OCCCN2CCCC2)cc1)N1c2ccccc2C=Cc2ccccc21; 3.97
O=C(c1ccc(OCCCN2CCOCC2)cc1)N1c2ccccc2C=Cc2ccccc21; 3.59
NC(N)=NCCCOc1ccc(C(=O)Nc2ccccc2Oc2ccc(F)cc2)cc1; 3.73
O=C(c1ccc(OCCCN2CCCC2)cc1)N1c2ccccc2CCc2ccccc21; 4.01

====

Measured half-life values are reported for all entries that follow.
Test: Stability of the compound in Sprague-Dawley rat plasma assessed as half-life measured by RP-HPLC
Format: ADME, cell-free
Assay Metric: half-life

CN(C)CCCOc1ccc(C(=O)N2c3ccccc3CCc3ccccc32)cc1; > 60 h
CN(C)CCCOc1ccc(C(=O)N2c3ccccc3C=Cc3ccccc32)cc1; > 60 h
